- target: ERK2 (Homo sapiens, UniProt P28482)
- Sequence (P28482 whole entry, species assumed): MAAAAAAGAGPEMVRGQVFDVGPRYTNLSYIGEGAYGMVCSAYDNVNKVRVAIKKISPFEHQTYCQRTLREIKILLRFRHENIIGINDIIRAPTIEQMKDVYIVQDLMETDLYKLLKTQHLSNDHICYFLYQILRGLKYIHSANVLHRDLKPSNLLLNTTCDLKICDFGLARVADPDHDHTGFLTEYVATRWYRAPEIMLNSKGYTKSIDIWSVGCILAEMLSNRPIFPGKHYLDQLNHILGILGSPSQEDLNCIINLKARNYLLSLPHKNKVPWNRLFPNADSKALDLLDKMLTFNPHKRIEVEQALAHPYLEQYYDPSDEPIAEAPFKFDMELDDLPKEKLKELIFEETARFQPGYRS
- assay-method-text: ERK2 Binding
- applied-conditions: read-out: ERK2 Binding Ki
attribute-measured: Ki (µM)
Supply the numeric figure in µM, leaving out any unit text.

Lookup: Specify reported Ki for the molecule shown: `C[C@H]1C/C=C\C(=O)[C@@H](O)[C@@H](O)COCc2cc(O)cc(O)c2C(=O)O1`
Found: 3.1

====

- System: HT29 (B-Raf V600E) human colon cancer cell line
- assay-method-text: Inhibitory concentration against HT29 cancer cell line
- Type: cell-based
- applied-conditions: Homo sapiens, HT-29, read-out: Inhibitory Concentration (IC50) HT29 (B-Raf V600E)
attribute-measured: IC50
Please answer using a numeric value trailed by its unit.

Lookup: Specify reported IC50 for the compound shown: COc1cc(O)c2c(c1)[C@H]1O[C@@H]1C[C@H](O)[C@H](O)C(=O)/C=C\C[C@H](C)OC2=O [Hypothemycin, hypothemycin]
Found: 260 nM
